# TARGET_DESC: medaka GCRP receptor (medaka)
Exercise: state measured CRE-luc reporter, HEK293T cells with the receptor: Emax (fold induction) for each of the binders provided.
Answer with a bare number; do not write a unit.

Endpoint output: CRE-luc reporter, HEK293T cells with the receptor: Emax (fold induction) of HSEGTFSNDYSKYLEDRKAQDFVRWLMNN [Medaka GCG1] . Value?
4.26

Endpoint output: CRE-luc reporter, HEK293T cells with the receptor: Emax (fold induction) of HTDGMFTSDLTNYLDKMKAKNFVEWLAAIKQQE [Medaka GCRP] . Value?
7.9

Endpoint output: CRE-luc reporter, HEK293T cells with the receptor: Emax (fold induction) of HSEGTFSSDLTRYLDKMKAKDFVQWLMN [Xenopus GCRP] . Value?
8.1

Endpoint output: CRE-luc reporter, HEK293T cells with the receptor: Emax (fold induction) of HSEGTFTSDFTRYLDKMKAKDFVHWLINT [Chicken GCRP] . Value?
8.12
